- assay remarks: Particle generation and ozone consumption by type of terpene in 26.5 m^3 test chamber
- Format: physicochemical
- protocol conditions: terpene approx. 1 mg/m^3; 26.5 m^3 test chamber; initial ozone 100 ppb
attribute measured: Particle yield

> print(dat)
                        compound  attribute.measured    endpoint.value
1  C=CCc1ccc(O)c(OC)c1 [Eugenol]      Particle yield  18742.9 10^6/mol

Req: Assign Particle yield to the following record: CC12CCC(CC1)C(C)(C)O2 [Eucalyptol, Eucalyptol (1,8-cineol)]
Resp: 779.9 10^6/mol

Req: Write down Particle yield measured for item C=CC(C)(O)CCC=C(C)C (stereo not drawn) [Linalool]
Resp: 76911.2 10^6/mol

Req: Please give measured Particle yield of the following entry: CC(C)=CCC/C(C)=C/CO [Geraniol]
Resp: 57608.1 10^6/mol

Req: Specify reported Particle yield for the compound shown: C=C(C)[C@H]1CC=C(C)CC1 [Limonene]
Resp: 94003.4 10^6/mol

Req: Give the reported Particle yield for this compound. Cc1ccc(C(C)C)c(O)c1 [Thymol]
Resp: 498.2 10^6/mol
